Reported values of cell viability for individual entries
- Tested on: SEM cells
- protocolDetails: cell viability relative to DMSO control; higher = less cytotoxic
- assaySetup: HPLM + 10% dialyzed FBS; 48 h; 15.4 µM
Answer format: numeric, % implied, no suffix.

Illustrative cases are given below, each with its answer.
testSmiles | measuredAttribute | quantitativeReadout
COc1ccc(C(=O)c2c(C)n(CCN3CCOCC3)c3ccccc23)cc1 | cell viability | 108
O=C1\C=C/C=C2/[C@H]3CNC[C@H](C3)CN12 | cell viability | 112
O=C1CCC[C@@H]2[C@H]3CCCN4CCC[C@@H](CN12)[C@@H]34 | cell viability | 71.3
CC[C@]12CC[C@H]3[C@@H](CCC/4=C/C(=O)CC[C@H]34)[C@@H]1CC[C@@]2(O)C#C | cell viability | 80.9
CC(C)=CCC/C(C)=C/CC/C(C)=C/CC/C(C)=C/CC/C(C)=C/CC/C(C)=C/CC/C(C)=C/CC/C(C)=C/CC/C(C)=C/CO | cell viability | 85.5

Q. // lookup cell viability for `OC1=CC=C(C=C1)\C2=C\OC3=C(C(=CC(=C3)O)O)C2=O`
A. 102

Q. // lookup cell viability for `CCN(CC)CCOc1ccc(Cc2ccccc2)cc1`
A. 75.9

====

- Test system: NOMO1
- protocolDetails: cell viability relative to DMSO control; higher = less cytotoxic
- assaySetup: RPMI 5 mM glucose + 10% FBS; 48 h; 0.0211 µM
measuredAttribute: cell viability (%)
Answer format: numeric, % implied, no suffix.

Illustrative cases are given below, each with its answer.
compound | cell viability / %
CC(=O)OC[C@H]1O[C@@H]([S-])[C@H](OC(C)=O)[C@@H](OC(C)=O)[C@@H]1OC(C)=O.CCP(CC)CC.[Au+] | 96.4
Cc1ccc([N+](=O)[O-])cc1[S+](=O)([O-])N(C)/N=C/c1cnc2ccc(Br)cn12 | 98.7

Q. // lookup cell viability for `CC1=C(/C=C/C(C)=C/C=C/C(C)=C\C(=O)O)C(C)(C)CCC1`
A. 86.3

Q. // lookup cell viability for `CCN1C[C@H](C)[N]2C(=C(O)C3=C2\C(=N/N(CC4=CC=C(F)C(=C4)Cl)C3=O)C(=O)NC)C1=O`
A. 111

Q. // lookup cell viability for `Cc1c(-c2cccc3c(CCCOc4cccc5ccccc45)c(C(=O)O)n(Cc4cccnc4)c23)c(COc2ccc(N3CCN([S+](=O)([O-])N(C)C)CC3)cc2)nn1C`
A. 85.7

Q. // lookup cell viability for `COc1cc(Nc2c(C#N)cnc3cc(OCCCN4CCN(C)CC4)c(OC)cc23)c(Cl)cc1Cl`
A. 119

Q. // lookup cell viability for `Cc1cc(OCCC[S+](C)(=O)[O-])cc(C)c1-c1cccc(COc2ccc3c(c2)OC[C@H]3CC(=O)O)c1`
A. 102

Q. // lookup cell viability for `O=C(Nc1nnc(-c2ccco2)o1)c1cc(-c2ccccc2)nc2ccccc12`
A. 105

Q. // lookup cell viability for `CCOC(=O)[C@@]1(CCCCCCOc2ccc(Cl)cc2)CO1`
A. 107

Q. // lookup cell viability for `OC1=CC2=C(C=C1)C(=O)\C(=C(O2)\C3=CC(=C(O)C=C3)O)O`
A. 6.71

Q. // lookup cell viability for `C[C@@H]1CCN(C(=O)CC#N)C[C@@H]1N(C)c1ncnc2[nH]ccc12`
A. 75.8

Q. // lookup cell viability for `O=C([O-])C[C@H](O)C[C@H](O)/C=C/c1c(C2CC2)nc2ccccc2c1-c1ccc(F)cc1`
A. 114

Q. // lookup cell viability for `CCN(CC)CCOc1ccc(Cc2ccccc2)cc1`
A. 106

Q. // lookup cell viability for `C[C@H]1C[C@H]2[C@@H]3CC[C@](O)(C(=O)CO)[C@@]3(C)C[C@H](O)[C@@H]2[C@@]\4(C)/C=C\C(=O)\C=C14`
A. 101

Q. // lookup cell viability for `C[C@@H]1CN(Cc2ccc(F)cc2)[C@@H](C)CN1C(=O)c1cc2c(C(=O)C(=O)N(C)C)cn(C)c2cc1Cl`
A. 120

Q. // lookup cell viability for `OC[C@H]1O[C@H](C[C@@H]1O)N2\C=C(F)/C(=O)NC2=O`
A. 118

Q. // lookup cell viability for `O=C1CCC[C@@H]2[C@H]3CCCN4CCC[C@@H](CN12)[C@@H]34`
A. 86.8

Q. // lookup cell viability for CCCC(C)(COC(N)=O)COC(=O)NC(C)C (centres undefined)
A. 127

Q. // lookup cell viability for `COc1cc([C@@H]2c3cc4c(cc3[C@H](O)[C@H]3COC(=O)[C@@H]23)OCO4)cc(OC)c1OC`
A. 99.2

====

Reported values of cell viability for individual entries
- Test system: NOMO1
- protocolDetails: cell viability relative to DMSO control; higher = less cytotoxic
- assaySetup: RPMI 5 mM glucose + 10% dialyzed FBS; 48 h; 0.00234 µM
Answer format: numeric, % implied, no suffix.

Illustrative cases are given below, each with its answer.
compound | quantitativeReadout
CCc1cc(C(N)=S)ccn1 | 116
CCN1\C=C(\C(O)=O)C(=O)C2=C1N=C(N3CCNCC3)C(=C2)F | 91
C[C@@H]1CN(Cc2ccc(F)cc2)[C@@H](C)CN1C(=O)c1cc2c(C(=O)C(=O)N(C)C)cn(C)c2cc1Cl | 117
CCOC(=O)C(C#N)C\1C2=CC(=CC=C2O\C(=C1C(=O)OCC)N)Br (stereo unspecified) | 95.1
CN(C)c1ccc2nc3ccc(N(C)C)cc3[s+]c2c1 | 99.7

Q. // lookup cell viability for `OC1=CC2=C(C=C1)C(=O)\C(=C(O2)\C3=CC(=C(O)C=C3)O)O`
A. 103

====

- Test system: P12-Ichikawa
- protocolDetails: cell viability relative to DMSO control; higher = less cytotoxic
- assaySetup: HPLM + 10% dialyzed FBS; 48 h; 15.4 µM
One threshold, 80%, splits the recorded cell viability values: lower ones are True, equal or higher ones are False.

Answered examples (4):
compound | targetUnderTest | assignedCategory
CCOc1cc2ncc(C#N)c(Nc3ccc(OCc4ccccn4)c(Cl)c3)c2cc1NC(=O)/C=C/CN(C)C | P12-Ichikawa | True
C[N]1C=C(C2=CC=CC=C12)\C3=C(\C(=O)NC3=O)C4=C[N](C5CCN(CC5)CC6=NC=CC=C6)C7=C4C=CC=C7 | P12-Ichikawa | False
CC(=O)N[C@@H]1[C@@H](NC(N)=N)\C=C(/O[C@H]1[C@H](O)[C@H](O)CO)C(O)=O | P12-Ichikawa | False
CCOC(=O)C(C#N)C\1C2=CC(=CC=C2O\C(=C1C(=O)OCC)N)Br (centres undefined) | P12-Ichikawa | False

Consider the record given below.
Q. Is cell viability strictly under 80% for the entry `O=[N+]([O-])c1ncc[nH]1` ?
A. True

====

- System: SEM cells
- protocolDetails: cell viability relative to DMSO control; higher = less cytotoxic
- assaySetup: HPLM + 10% dialyzed FBS; 48 h; 0.0211 µM
measuredAttribute: cell viability (%)
Answer format: numeric, % implied, no suffix.

Q. // lookup cell viability for `CCOc1cc2ncc(C#N)c(Nc3ccc(F)c(Cl)c3)c2cc1NC(=O)/C=C/CN(C)C`
A. 123

Q. // lookup cell viability for `CCN(CC)CCOc1ccc(Cc2ccccc2)cc1`
A. 88.4

Q. // lookup cell viability for `Cc1ccc([N+](=O)[O-])cc1[S+](=O)([O-])N(C)/N=C/c1cnc2ccc(Br)cn12`
A. 75.7

Q. // lookup cell viability for `CCc1cc(C(N)=S)ccn1`
A. 86.3

Q. // lookup cell viability for `CCOc1cc2ncc(C#N)c(Nc3ccc(OCc4ccccn4)c(Cl)c3)c2cc1NC(=O)/C=C/CN(C)C`
A. 122

====

Reported values of cell viability for individual entries
- System: NOMO1
- protocolDetails: cell viability relative to DMSO control; higher = less cytotoxic
- assaySetup: HPLM + 10% dialyzed FBS; 48 h; 0.00234 µM
Answer format: numeric, % implied, no suffix.

Illustrative cases are given below, each with its answer.
compound | cell viability / %
CC(C)N(C[C@H]1O[C@@H](n2cnc3c(N)ncnc32)[C@H](O)[C@@H]1O)[C@H]1C[C@@H](CCc2nc3cc(C(C)(C)C)ccc3[nH]2)C1 | 98.5
CCC(C)N1\N=C/N(C1=O)C2=CC=C(C=C2)N3CCN(CC3)C4=CC=C(OC[C@H]5CO[C@@](C[N]6C=NC=N6)(O5)C7=CC=C(Cl)C=C7Cl)C=C4 (some centres undefined) | 98.9
COC(=O)Nc1nc2cc(C(=O)c3ccc(F)cc3)ccc2[nH]1 | 113

Q. // lookup cell viability for `CN(C)c1ccc2nc3ccc(N(C)C)cc3[s+]c2c1`
A. 94.5

====

- System: NOMO1
- protocolDetails: cell viability relative to DMSO control; higher = less cytotoxic
- assaySetup: RPMI 5 mM glucose + 10% dialyzed FBS; 48 h; 46.1 µM
measuredAttribute: cell viability (%)
Answer format: numeric, % implied, no suffix.

testSmiles | cell viability (%)
CCN(CC)CCOc1ccc(Cc2ccccc2)cc1 | 78.3
CCN(CCO)CCCOc1ccc2c(Nc3cc(CC(=O)Nc4cccc(F)c4)[nH]n3)ncnc2c1 | 80.6
OC1=CC=C(C=C1)\C2=C\OC3=C(C(=CC(=C3)O)O)C2=O | 103
O=C(CCc1ccc(O)cc1)c1c(O)cc(O)cc1O | 74.7
CN1CCN(c2c(F)cc3c(=O)c(C(=O)O)cn(CCF)c3c2F)CC1 | 104

Q. // lookup cell viability for `O=C(CC12CC3CC(CC(C3)C1)C2)Nc1cccc2nc(NCCNCCO)ccc12`
A. 57.7

Q. // lookup cell viability for `O=C1CCC[C@@H]2[C@H]3CCCN4CCC[C@@H](CN12)[C@@H]34`
A. 10.8
